# Tested on: human red blood cells (hRBCs)
# TEST_PROTOCOL: Hemolysis assay
# Type: cell-based
# CONDITION_CONTEXT: peptide concentration causing 50% hemolysis; 4% (v/v) hRBCs in PBS, 1 h, 37 °C, absorbance 540 nm, triplicate
Where a SMILES comes first, the peptide text is derived from it. Bridges are numbered along the chain shown (N, C = ends). The star is where a group is joined. Palmitoyl = CCCCCCCCCCCCCCCC(=O)*
compounds and their reported HC50

# COMPOUND, HC50 [µg/mL]
rows = [
    ("CCCCCCCCCCCCCCCC(=O)N[C@H]1CSSC[C@@H](C(N)=O)NC(=O)[C@H](CCCCN)NC(=O)[C@H](CCCCN)NC(=O)[C@H](CCCNC(=N)N)NC(=O)[C@H](CCCNC(=N)N)NC1=O [C7, C16-CRRKKC-NH2] (Palmitoyl-CRRKKC-NH2; disulfide 1-6)", 92.0),
    ("CCCCCCCCCCCCCCCC(=O)N[C@@H](CCCCN)C(=O)N[C@@H](CCCCN)C(=O)N[C@@H](CCCCN)C(N)=O", 90.0),
    ("CCCCCCCCCCCCCCCC(=O)N[C@@H](CCCCN)C(=O)N[C@@H](CCCCN)C(=O)N[C@@H](CCCCN)C(=O)N[C@@H](CCCNC(=N)N)C(N)=O [L6, C16-KKKR-NH2] (Palmitoyl-KKKR-NH2)", 89.7),
]
